Every entry's value here was drawn from PubChem BioAssay AID2060617.

System: 485368-065-R4-J2-PDC spheroids with HUVEC/MSC, viability
experimentNotes: Anticancer human tumor 485368-065-R4-J2-PDC patient-derived pancreatic carcinoma cell line growth inhibition [CLK]
conditionDescription: second compound 10 µM; first compound 0.0949 µM; active compounds read low
Lab note - cut at 4% for viability, T/C: class 1 if strictly below, class 0 if not.

Recorded results for 3 molecules are shown here.
- molecule: "C=CC(=O)Nc1cc(Nc2nccc(-c3cn(C)c4ccccc34)n2)c(OC)cc1N(C)CCN(C)C + CN1CCN(c2cc(C(=O)Nc3cc4cc(-c5cnn(C)c5)ccc4cn3)ccn2)CC1"
  classLabel: "class 1"
- molecule: "CC(C)CC(NC(=O)C(Cc1ccccc1)NC(=O)c1cnccn1)B(O)O (stereo unspecified) + CN1CCN(c2cc(C(=O)Nc3cc4cc(-c5cnn(C)c5)ccc4cn3)ccn2)CC1"
  classLabel: "class 1"
- molecule: "NC(=O)C(=Cn1cnc(-c2cc(C(F)(F)F)cc(C(F)(F)F)c2)n1)c1cncnc1 + CN1CCN(c2cc(C(=O)Nc3cc4cc(-c5cnn(C)c5)ccc4cn3)ccn2)CC1"
  classLabel: "class 0"

Report whether reported viability, T/C is lower than 4% (strictly) for C=CC(=O)Nc1cc(Nc2nccc(-c3cn(C)c4ccccc34)n2)c(OC)cc1N(C)CCN(C)C + CNC(=O)c1ccc(Nc2nc(OC3CCCC3)c3c(-c4ccc5nc(C)oc5c4)c[nH]c3n2)c(OC)c1
class 0

Same again, this time with NC(=O)C(=Cn1cnc(-c2cc(C(F)(F)F)cc(C(F)(F)F)c2)n1)c1cncnc1 + CNC(=O)c1ccc(Nc2nc(OC3CCCC3)c3c(-c4ccc5nc(C)oc5c4)c[nH]c3n2)c(OC)c1
class 0

----------
System: 485368-065-R4-J2-PDC spheroids with HUVEC/MSC, viability
experimentNotes: Anticancer human tumor 485368-065-R4-J2-PDC cell line growth inhibition [CLK]; active = viability on the fitted dose curve at most 10% of control; inactive = the rest;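 note: spheroids exposed to compounds for seven days; 100% = DMSO vehicle control wells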
conditionDescription: second compound 1 µM; first compound 1 µM
Output constraint: value belongs to True for active, False for inactive

Example entries begin here.
- compound: "CC1(C)CCC(CN2CCN(c3ccc(C(=O)NS(=O)(=O)c4ccc(NCC5CCOCC5)c([N+](=O)[O-])c4)c(Oc4cnc5[nH]ccc5c4)c3)CC2)=C(c2ccc(Cl)cc2)C1 + CN1CCN(c2cc(C(=O)Nc3cc4cc(-c5cnn(C)c5)ccc4cn3)ccn2)CC1"
  classLabel: "True"
- compound: "CCCS(=O)(=O)Nc1ccc(F)c(C(=O)c2c[nH]c3ncc(-c4ccc(Cl)cc4)cc23)c1F + CNC(=O)c1ccc(Nc2nc(OC3CCCC3)c3c(-c4ccc5nc(C)oc5c4)c[nH]c3n2)c(OC)c1"
  classLabel: "False"

Field: next compound
Each compound tested received a call. Report the one for O=c1[nH]cc(F)c(=O)[nH]1 + CN1CCN(c2cc(C(=O)Nc3cc4cc(-c5cnn(C)c5)ccc4cn3)ccn2)CC1 .
True

----------
Property: viability, T/C; scope: individual compounds
System: 485368-065-R4-J2-PDC spheroids with HUVEC/MSC, viability
experimentNotes: Anticancer human tumor 485368-065-R4-J2-PDC cell line growth inhibition [CLK];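 note: spheroids exposed to compounds for seven days; 100% = DMSO vehicle control wells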
conditionDescription: second compound 3.16 µM; first compound 0.316 µM; active compounds read low
From the text: A high-throughput screen of multi-cell type tumor spheroids was designed to identify active combinations of […] and targeted small molecules. Complex spheroids include a stromal component modeled by human endothelial cells (HUVEC) and fibroblasts modeled by human mesenchymal stem cells (MSCs). […] Compounds. […] If the clinical Cmax for an agent had not been determined, the highest concentration tested was 10 microM. […]
Answer with a number only, understood to be in %.

- compound: "CC1COCCN1c1cc(C2(S(C)(=N)=O)CC2)nc(-c2ccnc3[nH]ccc23)n1 (stereo not given) + CNC(=O)c1ccc(Nc2nc(OC3CCCC3)c3c(-c4ccc5nc(C)oc5c4)c[nH]c3n2)c(OC)c1"
  measValue: 68

Can you look up viability, T/C on 485368-065-R4-J2-PDC spheroids with HUVEC/MSC, viability for Nc1ccccc1NC(=O)c1ccc(CNC(=O)OCc2cccnc2)cc1 + CN1CCN(c2cc(C(=O)Nc3cc4cc(-c5cnn(C)c5)ccc4cn3)ccn2)CC1 ?
3.03

Then C=CC(=O)N1CCN(c2nc(=O)n(-c3c(C)ccnc3C(C)C)c3nc(-c4c(O)cccc4F)c(F)cc23)C(C)C1 (stereo not given) + CN1CCN(c2cc(C(=O)Nc3cc4cc(-c5cnn(C)c5)ccc4cn3)ccn2)CC1 ?
2.4

And for C=CC(=O)N1CCN(c2nc(=O)n(-c3c(C)ccnc3C(C)C)c3nc(-c4c(O)cccc4F)c(F)cc23)C(C)C1 (stereo not given) + CNC(=O)c1ccc(Nc2nc(OC3CCCC3)c3c(-c4ccc5nc(C)oc5c4)c[nH]c3n2)c(OC)c1 ?
72.2

Try COC1C=CCC(C)C(C)S(=O)(=O)NC(=O)c2ccc3c(c2)N(CC2CCC21)CC1(CCCc2cc(Cl)ccc21)CO3 (stereo not given) + CNC(=O)c1ccc(Nc2nc(OC3CCCC3)c3c(-c4ccc5nc(C)oc5c4)c[nH]c3n2)c(OC)c1 next.
72.9
